system: DLD1; assay: TCF/Wnt firefly luciferase reporter signal relative to plate median (fraction of plate median); higher = higher Wnt reporter signal; details: 10 µM; treatment time 24 h; reporter: TCF4/Wnt
Kind request: treat 1 as inclusive, so TCF/Wnt firefly luciferase reporter signal at 1 or higher is satisfied, anything lower is not satisfied.

q: I'd appreciate it if you could say whether CC(C)n1nc(-c2cc3cc(O)ccc3[nH]2)c2c(N)ncnc21 has TCF/Wnt firefly luciferase reporter signal at least equal to 1.
a: not satisfied

q: I'd appreciate it if you could say whether O=C(O)[C@]1(Cc2cccc(Nc3nccs3)n2)CC[C@@H](Oc2cccc(Cl)c2F)CC1 has TCF/Wnt firefly luciferase reporter signal at least equal to 1.
a: not satisfied

q: I'd appreciate it if you could say whether CC[C@H](Nc1ncnc2[nH]cnc12)c1nc2cccc(F)c2c(=O)n1-c1ccccc1 has TCF/Wnt firefly luciferase reporter signal at least equal to 1.
a: not satisfied

q: I'd appreciate it if you could say whether Cc1[nH]c(/C=C2\C(=O)Nc3ccccc32)c(C)c1CCC(=O)O has TCF/Wnt firefly luciferase reporter signal at least equal to 1.
a: satisfied

q: I'd appreciate it if you could say whether N#Cc1c(O)c2c(-c3ccc(-c4ccccc4O)cc3)csc2[nH]c1=O has TCF/Wnt firefly luciferase reporter signal at least equal to 1.
a: not satisfied

q: I'd appreciate it if you could say whether COc1cccc(-c2cc(=O)c3ccccc3o2)c1N has TCF/Wnt firefly luciferase reporter signal at least equal to 1.
a: satisfied

q: I'd appreciate it if you could say whether CCN(CC)CCNC(=O)c1c(C)[nH]c(/C=C2\C(=O)Nc3ccc(F)cc32)c1C [Sunitinib Malate (Sutent)] has TCF/Wnt firefly luciferase reporter signal at least equal to 1.
a: not satisfied

q: I'd appreciate it if you could say whether N#CCNC(=O)c1ccc(-c2ccnc(Nc3ccc(N4CCOCC4)cc3)n2)cc1 has TCF/Wnt firefly luciferase reporter signal at least equal to 1.
a: satisfied

q: I'd appreciate it if you could say whether COc1ccc(-c2ccc3c(N4CCOC[C@@H]4C)nc(N4CCOC[C@@H]4C)nc3n2)cc1CO has TCF/Wnt firefly luciferase reporter signal at least equal to 1.
a: not satisfied

q: I'd appreciate it if you could say whether Cc1cnc(NC(=O)Nc2cc(Br)c(C)cc2OC[C@@H]2CNCCO2)cn1 has TCF/Wnt firefly luciferase reporter signal at least equal to 1.
a: satisfied

q: I'd appreciate it if you could say whether CN(C)CCOc1ccc(-c2nc(-c3ccncc3)c(-c3ccc4c(c3)CC/C4=N\O)[nH]2)cc1 has TCF/Wnt firefly luciferase reporter signal at least equal to 1.
a: satisfied

q: I'd appreciate it if you could say whether Cc1cc(C)c(/C=C2\C(=O)Nc3ccccc32)[nH]1 [Semaxanib (SU5416)] has TCF/Wnt firefly luciferase reporter signal at least equal to 1.
a: satisfied

q: I'd appreciate it if you could say whether COc1cc2c(N3CCN(C(=O)Nc4ccc(OC(C)C)cc4)CC3)ncnc2cc1OCCCN1CCCCC1 has TCF/Wnt firefly luciferase reporter signal at least equal to 1.
a: satisfied

q: I'd appreciate it if you could say whether Cc1cc(C(=O)NOCCO)c(Nc2ccc(I)cc2F)n(C)c1=O has TCF/Wnt firefly luciferase reporter signal at least equal to 1.
a: satisfied

q: I'd appreciate it if you could say whether Oc1cccc(-c2nc(N3CCOCC3)c3oc4ncccc4c3n2)c1 has TCF/Wnt firefly luciferase reporter signal at least equal to 1.
a: not satisfied

q: I'd appreciate it if you could say whether COc1ccc2c(OCc3nnc4ccc(-c5ccccc5)nn34)ccnc2c1 has TCF/Wnt firefly luciferase reporter signal at least equal to 1.
a: satisfied

q: I'd appreciate it if you could say whether CNC(=O)c1cc(COc2nnc(Nc3ccc(Cl)cc3)c3ccoc23)ccn1 has TCF/Wnt firefly luciferase reporter signal at least equal to 1.
a: satisfied

q: I'd appreciate it if you could say whether O=C1NC(=O)/C(=C/c2ccc3c(c2)OC(F)(F)O3)S1 has TCF/Wnt firefly luciferase reporter signal at least equal to 1.
a: satisfied
